# Test system: E. faecalis MGH-2
# Protocol description: Antibacterial assay (Test A), standard microtitration MIC, Gram positive
# Type: cell-based
# Condition set: Enterococcus faecalis, MGH2; Gram Positive Bacteria; strain MGH-2; read-out: Minimum Inhibitory Concentrations, E. faecalis MGH-2
I'd appreciate it if you marked entries T when MIC is lower than 4 µg/mL and F when it is not.

I wonder whether `CC(=O)NC[C@H]1CN(c2ccc3c(c2)CCN(C(=O)Cc2cccs2)CC3)C(=O)O1` has MIC below 4 µg/mL. Can you tell?
T

I wonder whether CC(=O)NC[C@H]1CN(c2ccc3c(c2)CCCC(Cc2ccsc2)C3=O)C(=O)O1 (stereo partly drawn) has MIC below 4 µg/mL. Can you tell?
T

I wonder whether CC(=O)NCC1CN(c2ccc3c(c2)CCCCC3=O)C(=O)O1 (stereo not drawn) [Example 2] has MIC below 4 µg/mL. Can you tell?
F

I wonder whether CC(=O)NCC1CN(c2ccc3c(c2)CCC(=O)CC3)C(=O)O1 (stereo not drawn) [Example 4] has MIC below 4 µg/mL. Can you tell?
F

I wonder whether COC(=O)C1CCCc2cc(N3C[C@H](CNC(C)=O)OC3=O)ccc2C1=O (stereo partly drawn) has MIC below 4 µg/mL. Can you tell?
T

I wonder whether CC(=O)NCC1CN(c2ccc3c(c2)CC(=O)CCC3)C(=O)O1 (stereo not drawn) [Example 5] has MIC below 4 µg/mL. Can you tell?
F

---

# System: E. faecalis MGH-2
# Protocol description: Antibacterial assay (Test A), standard microtitration MIC, Gram positive
# Format: cell-based
# Condition set: Enterococcus faecalis, MGH2; Gram Positive Bacteria; strain MGH-2; read-out: Minimum Inhibitory Concentrations, E. faecalis MGH-2
Record form. Attribute: MIC. Fill in for each entry.
Give the value, in units of µg/mL, as a plain number.

I would be grateful if you could share the reported MIC for CC(=O)NC[C@H]1CN(c2ccc3c(c2)CCC/C(=C\c2ccncc2)C3=O)C(=O)O1 [drawing 72] .
1

I would be grateful if you could share the reported MIC for CC(=O)NCC1CN(c2ccc3c(c2)CCCC(=O)C3)C(=O)O1 (centres unmarked) .
4

I would be grateful if you could share the reported MIC for CC(=O)NCC1CN(c2ccc3c(c2)CCCCN3)C(=O)O1 (centres unmarked) .
64

I would be grateful if you could share the reported MIC for CC(=O)NC[C@H]1CN(c2ccc3c(c2)CCC/C(=C\c2ccc(F)cc2)C3=O)C(=O)O1 [drawing 73] .
0.5

I would be grateful if you could share the reported MIC for `CC(=O)NC[C@H]1CN(c2ccc3c(c2)C=CCCC3)C(=O)O1` .
4

---

# Tested on: E. coli transcription and translation (TnT), E. coli S30 fraction
# Protocol description: E. coli transcription and translation (TnT) assay, cell free, luciferase luminescence;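 note: printed under a heading of minimum inhibitory concentration in µg/mL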
# Format: biochemical
# Condition set: cell free E. coli S30, firefly luciferase plasmid pBESTluc, 20 minutes at room temperature
Measurement kind: Inhibitory concentration in E. coli cell-free transcription/translation assay (µg/mL)
Give the value, in units of µg/mL, as a plain number.

I would be grateful if you could share the reported Inhibitory concentration in E. coli cell-free transcription/translation assay for CC(=O)NC[C@H]1CN(c2ccc3c(c2)CCC/C(=C\c2ccncc2)C3=O)C(=O)O1 [drawing 73] .
2.7

I would be grateful if you could share the reported Inhibitory concentration in E. coli cell-free transcription/translation assay for CC(=O)NC[C@H]1CN(c2ccc3c(c2)CCCCC3)C(=O)O1 [drawing 70] .
6.6

I would be grateful if you could share the reported Inhibitory concentration in E. coli cell-free transcription/translation assay for CC(=O)NCC1CN(c2ccc3c(c2)C=CCCC3)C(=O)O1 (stereo not drawn) .
15

I would be grateful if you could share the reported Inhibitory concentration in E. coli cell-free transcription/translation assay for CC(=O)NC[C@H]1CN(c2ccc3c(c2)CCC/C(=C\c2ccc(F)cc2)C3=O)C(=O)O1 [drawing 72] .
1.4

I would be grateful if you could share the reported Inhibitory concentration in E. coli cell-free transcription/translation assay for `CC(=O)NC[C@H]1CN(c2ccc3c(c2)CCN(C(=O)Cc2cccs2)CC3)C(=O)O1` .
2.3

I would be grateful if you could share the reported Inhibitory concentration in E. coli cell-free transcription/translation assay for COC(=O)C1CCCc2cc(N3C[C@H](CNC(C)=O)OC3=O)ccc2C1=O (stereo partly drawn) .
4.7

I would be grateful if you could share the reported Inhibitory concentration in E. coli cell-free transcription/translation assay for CC(=O)NCC1CN(c2ccc3c(c2)CCCC(=O)C3)C(=O)O1 (stereo not drawn) .
12

I would be grateful if you could share the reported Inhibitory concentration in E. coli cell-free transcription/translation assay for CC(=O)NCC1CN(c2ccc3c(c2)CC(=O)CCC3)C(=O)O1 (stereo not drawn) .
2.3

I would be grateful if you could share the reported Inhibitory concentration in E. coli cell-free transcription/translation assay for CC(=O)NC[C@H]1CN(c2ccc3c(c2)CCCC(Cc2ccsc2)C3=O)C(=O)O1 (stereo partly drawn) .
0.84

I would be grateful if you could share the reported Inhibitory concentration in E. coli cell-free transcription/translation assay for CC(=O)NCC1CN(c2ccc3c(c2)CCCCC3=O)C(=O)O1 (stereo not drawn) .
3.9

I would be grateful if you could share the reported Inhibitory concentration in E. coli cell-free transcription/translation assay for CC(=O)NCC1CN(c2ccc3c(c2)OCCCC3=O)C(=O)O1 (stereo not drawn) .
1.1

I would be grateful if you could share the reported Inhibitory concentration in E. coli cell-free transcription/translation assay for CC(=O)NCC1CN(c2ccc3c(c2)CCC(=O)CC3)C(=O)O1 (stereo not drawn) .
8.2
